Listed next: entries and their corresponding IL-2 secretion in T cell activation, Top (best-fit).
Molecular target: T1, human TIGIT over-expressed on cells (human, UniProt Q495A1 22-244)
T1 sequence: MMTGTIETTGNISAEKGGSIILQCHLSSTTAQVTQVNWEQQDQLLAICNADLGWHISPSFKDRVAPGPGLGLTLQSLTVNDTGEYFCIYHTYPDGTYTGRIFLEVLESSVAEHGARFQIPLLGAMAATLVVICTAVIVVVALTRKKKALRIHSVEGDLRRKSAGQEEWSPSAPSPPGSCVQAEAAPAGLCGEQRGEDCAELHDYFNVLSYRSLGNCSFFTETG
Assay: cell-based or functional assay
Lab note: record the figure alone, no unit after it.

Examples with their reported IL-2 secretion in T cell activation, Top (best-fit) follow.
For 100C4E7D11 (antibody, V domains shown, Mouse monoclonal antibody; also called mouse anti-human TIGIT monoclonal antibody 100C4E7D11) VH: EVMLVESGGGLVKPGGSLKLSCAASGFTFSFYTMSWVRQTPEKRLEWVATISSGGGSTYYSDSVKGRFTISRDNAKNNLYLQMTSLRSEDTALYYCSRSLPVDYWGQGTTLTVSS VL: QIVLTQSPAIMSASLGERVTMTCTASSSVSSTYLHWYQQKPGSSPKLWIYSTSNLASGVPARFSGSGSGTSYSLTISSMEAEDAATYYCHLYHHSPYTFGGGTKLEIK the binder record lists IL-2 secretion in T cell activation, Top (best-fit) as 191

Form: binder = 64G1E9B4 (antibody, V domains shown, Mouse monoclonal antibody; also called mouse anti-human TIGIT monoclonal antibody 64G1E9B4) VH: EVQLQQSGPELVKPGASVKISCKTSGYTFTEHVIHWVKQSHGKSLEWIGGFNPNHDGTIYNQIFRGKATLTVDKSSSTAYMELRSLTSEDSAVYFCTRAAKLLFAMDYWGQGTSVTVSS VL: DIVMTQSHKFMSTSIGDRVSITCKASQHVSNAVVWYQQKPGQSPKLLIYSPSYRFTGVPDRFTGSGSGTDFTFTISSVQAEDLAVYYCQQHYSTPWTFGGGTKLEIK ; IL-2 secretion in T cell activation, Top (best-fit) = 283

Next item in the queue.
For reference, reported IL-2 secretion in T cell activation, Top (best-fit) for 92E9D4B4 (antibody, V domains shown, Mouse monoclonal antibody; also called mouse anti-human TIGIT monoclonal antibody 92E9D4B4) VH: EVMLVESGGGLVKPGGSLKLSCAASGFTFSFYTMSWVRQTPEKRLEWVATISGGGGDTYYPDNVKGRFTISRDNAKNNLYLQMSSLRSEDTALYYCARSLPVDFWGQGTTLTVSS VL: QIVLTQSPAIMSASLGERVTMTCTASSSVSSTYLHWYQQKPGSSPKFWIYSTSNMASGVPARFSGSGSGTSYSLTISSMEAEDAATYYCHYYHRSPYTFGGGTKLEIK stands at 274
